Values were extracted from patent US20240272170A1.

Overview of reported Octet response across a group of binders:
Tested Target: FA peptide (Octet assay of PS557 variants)
Procedure Text: Octet (BLI), peptide on sensor, response after 200 s association
Result Type: Octet response (nm)

| Binder | Endpoint Result |
| --- | --- |
| PS828 (designed binder) MPTAASATESAIEDTPAPARPEVDGRTKPKRQPRYHVVLWDDDDHTYQYVVVMLQSLFGHPRERGYRLAKEVDTLGRVIVLTTTREHAELKRDQIHAFGYDRLLARSKGSMKASIEAEE | 0.583 |
| PS829 (designed binder) MPTAASATESAIEDTPAPARPEVDGRTKPKRQPRYHVVLWDDDDHTYQYVVVMLQSLFGHPRERGYRLAKEMDTLGRVIVLTTTREHAELKRDQIHAFGYDRLLARSKGSMKASIEAEE | 0.797 |
| PS808 (designed binder) MPTAASATESAIEDTPAPARPEVDGRTKPKRQPRYHVVLWNDDDHTYQYVVVMLRSLFGHPPERGYRLAKEVDTQGRVIVLTTTREHAELKRDQIHAFGYDRLLARSKGSMKASIEAEE | 0.00233 |
| PS838 (designed binder) MPTAASATESAIEDTPAPARPEVDGRTKPKRQPRYHVVLWDDDDHTYQYVVVMLQSLFGHPRERGYRLAKEMDTQGRVIVLTTTREHAELKRDQIHAFGYDRLLARSKGSMKASIEAEE | 0.377 |
| PS847 (designed binder) MPTAASATESAIEDTPAPARPEVDGRTKPKRQPRYHVVLWDDDDHTYQYVVVMLRSLFGHPPERGYRLAKEMDTQGRVIVLTTTREHAELKRDQIHAFGYDRLLARSKGSMKASIEAEE | 0.059 |
| PS797 (designed binder) MPTAASATESAIEDTPAPARPEVDGRTKPKRQPRYHVVLWDDDDHTYQYVVVMLQSLFGHPPERGYRLAKEMDTLGRVIVLTTTREHAELKRDQIHAFGYDRLLARSKGSMKASIEAEE | 0.202 |
| PS830 (designed binder) MPTAASATESAIEDTPAPARPEVDGRTKPKRQPRYHVVLWDDDDHTYQYVVVMLQSLFGHPRKRGYRLAKEMDTLGRVIVLTTTREHAELKRDQIHAFGYDRLLARSKGSMKASIEAEE | 0.0339 |
| PS796 (designed binder) MPTAASATESAIEDTPAPARPEVDGRTKPKRQPRYHVVLWDDDDHTYQYVVVMLQSLFGHPPERGYRLAKEMDTQGRVIVLTTTREHAELKRDQIHAFGYDRLLARSKGSMKASIEAEE | 1.37 |
